- Experimental Details: NCI Yeast Anticancer Drug Screen. Data for the sgs1 mgt1 strain (AID 161)
- Condition Summary: S. cerevisiae sgs1 mgt1 strain, at 5.0 µM (retest, dose inferred, filed as 0.5), stronger effect = higher value
The panel holds about 79,000 compounds, 15% with a hit somewhere; the sample as a whole holds those more often.
Kindly return rule met if reported growth inhibition is no lower than 10%; return rule not met if it is lower.

[
  {
    "Compound": "O=C(/C=N/O)c1c(-c2ccccc2)[nH]c(-c2ccccc2)c1-c1ccccc1",
    "Group": "rule not met"
  },
  {
    "Compound": "N#CSCCl",
    "Group": "rule not met"
  },
  {
    "Compound": "N#C/C(=C\\c1ccc(Cl)cc1Cl)C(N)=S",
    "Group": "rule not met"
  },
  {
    "Compound": "Fc1ccc(CSC(=S)Nc2cccc(C(F)(F)F)c2)cc1",
    "Group": "rule met"
  },
  {
    "Compound": "CCOC(=O)C(NS(=O)(=O)c1ccccc1)(C(F)(F)F)P(=O)(OCC(C)C)OCC(C)C (stereo not drawn)",
    "Group": "rule not met"
  },
  {
    "Compound": "CCCCCCCCCC(C)CC(=O)NCCCN(C)CCCCN(C)C (stereo not drawn) (tested in a mixture with another compound)",
    "Group": "rule met"
  },
  {
    "Compound": "CCc1cc2nc3c(=O)[nH]c(=O)nc-3n(CCN(CCO)CCO)c2cc1CC",
    "Group": "rule not met"
  },
  {
    "Compound": "Cc1cc(O)c2c(c1)OC1(C)CCC3C(C)(C)CCCC34COC2C14 (stereo not drawn)",
    "Group": "rule met"
  },
  {
    "Compound": "Cc1c(O)c(Br)c(Br)c(Br)c1Br",
    "Group": "rule met"
  },
  {
    "Compound": "Nc1nnc2nc(CC(=O)c3ccc([N+](=O)[O-])cc3)c(CC(=O)c3ccc([N+](=O)[O-])cc3)nn12",
    "Group": "rule not met"
  },
  {
    "Compound": "Oc1ccc(C2CCCCC2)cc1",
    "Group": "rule not met"
  },
  {
    "Compound": "O=C1C=CC(=O)N1CCc1ccccc1",
    "Group": "rule not met"
  },
  {
    "Compound": "NCC(O)CSc1ccc(Cl)c(Cl)c1 (stereo not drawn)",
    "Group": "rule not met"
  },
  {
    "Compound": "COc1ccc(NC2Oc3cc4c(cc3C(c3cccc(OC)c3OC)C2C)OCO4)cc1 (stereo not drawn)",
    "Group": "rule not met"
  },
  {
    "Compound": "O=C1c2ccccc2/C=C\\C(c2ccccc2)=N/N1c1ccccc1Cl",
    "Group": "rule not met"
  },
  {
    "Compound": "O=[N+]([O-])C(=C(Nc1ccccc1)Nc1ccccc1)C(Cl)=C(Cl)Cl",
    "Group": "rule met"
  },
  {
    "Compound": "O=C1c2scc(-c3ccccc3)c2-n2cccc21",
    "Group": "rule not met"
  },
  {
    "Compound": "O=[N+]([O-])c1cc(C(F)(F)F)ccc1SSc1ccc(C(F)(F)F)cc1[N+](=O)[O-]",
    "Group": "rule met"
  },
  {
    "Compound": "O=C(CBr)Nc1ccc(Cc2ccc(NC(=O)CBr)cc2)cc1",
    "Group": "rule met"
  },
  {
    "Compound": "COC(=O)C1=C(C(=O)OC)C2C(C)=CC(C)=CN2C(C(=O)OC)=C1C(=O)OC (stereo not drawn)",
    "Group": "rule not met"
  },
  {
    "Compound": "COc1ccc(OC)c2c1C=CC(Br)=CC2",
    "Group": "rule met"
  },
  {
    "Compound": "N#CN1CCCC(O)c2sc3ccccc3c2CC1 (stereo not drawn)",
    "Group": "rule not met"
  },
  {
    "Compound": "CCOC(=O)C(Cl)C(Cl)C(=O)OCC (stereo not drawn)",
    "Group": "rule not met"
  }
]
